B1: TPR 5TU (parent)
chain: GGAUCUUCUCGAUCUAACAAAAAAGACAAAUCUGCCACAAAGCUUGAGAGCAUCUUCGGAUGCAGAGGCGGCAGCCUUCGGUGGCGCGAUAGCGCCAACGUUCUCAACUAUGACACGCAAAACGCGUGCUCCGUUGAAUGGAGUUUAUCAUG

Variants of: B1
METHOD DESCRIPTION: polymerase ribozyme fitness, log enrichment relative to wild type (log ratio); higher = more active; in vitro selection for triplet polymerase activity
This sample holds only a part of the variants without activity.
A collection of variants and their measured polymerase ribozyme fitness (log ratio)
QUANTITY KIND: polymerase ribozyme fitness (log ratio)

[[record]]
variant_code = "C54U G92U"
lt_gt_eq = "="
observed_result = -0.757

[[record]]
variant_code = "U7G C35U U45A A52U G59A C93G G128A G141C"
lt_gt_eq = "≤"
observed_result = -4.2

[[record]]
variant_code = "A16U C87U"
lt_gt_eq = "="
observed_result = -2.65

[[record]]
variant_code = "U6A U13A C35G A110G A142G"
lt_gt_eq = "="
observed_result = -3.55

[[record]]
variant_code = "C51U C93G C116U G141A"
lt_gt_eq = "="
observed_result = -3.75

[[record]]
variant_code = "C27U C63U C76U G81C U101G U146G"
lt_gt_eq = "="
observed_result = -3.39

[[record]]
variant_code = "C69G C76A G152U"
lt_gt_eq = "="
observed_result = -4.17

[[record]]
variant_code = "A97G A98U"
lt_gt_eq = "="
observed_result = -0.253

[[record]]
variant_code = "A22U U53A G88A C116G A142G A150C"
lt_gt_eq = "≤"
observed_result = -4.2

[[record]]
variant_code = "G50A A64G"
lt_gt_eq = "="
observed_result = -3.77

[[record]]
variant_code = "A21U G62A"
lt_gt_eq = "="
observed_result = 0.138

[[record]]
variant_code = "C8U A20C A49G U53A C95A A106G C118G"
lt_gt_eq = "≤"
observed_result = -4.2

[[record]]
variant_code = "A29U U44G A49C C103G G141C"
lt_gt_eq = "≤"
observed_result = -4.2

[[record]]
variant_code = "G84C A97G"
lt_gt_eq = "="
observed_result = -1.95

[[record]]
variant_code = "U45A G94A"
lt_gt_eq = "="
observed_result = -2.81

[[record]]
variant_code = "U53A U148C"
lt_gt_eq = "="
observed_result = -3.4

[[record]]
variant_code = "G141A A147C"
lt_gt_eq = "="
observed_result = -3.63

[[record]]
variant_code = "U13G C14U A16G G59A U90G"
lt_gt_eq = "="
observed_result = -4.01

[[record]]
variant_code = "A49U G58C G124U"
lt_gt_eq = "="
observed_result = -1.3

[[record]]
variant_code = "A28C A52G C76G A91U U146G"
lt_gt_eq = "≤"
observed_result = -4.2

[[record]]
variant_code = "G25U G58U A97C"
lt_gt_eq = "="
observed_result = -2.23

[[record]]
variant_code = "C14U A21C C27U C36A G62U G80C G86A A137C"
lt_gt_eq = "="
observed_result = -3.96


Values compiled from the RNAGym collection of RNA variant scans (doi:10.1073/pnas.2313332121).
